# Test system: IL-1β, IL-6, IFN-γ, TNF-α, IL-8, MIP-1α, MCP-1, MIP-1β, RANTES
# measurement protocol: Cytokine and chemokine assays in cynomolgus monkeys (Example 46)
# Assay type: in vivo
# cond: day-14 (before start of treatment)
# Experimental: Groups, each consisting of two male and two female monkeys, were injected subcutaneously with 25 mg/kg of ISIS 416850, ISIS 449709, ISIS 445522, ISIS 449710, ISIS 449707, ISIS 449711, ISIS 449708, 416858, and ISIS 445531. […] Body weights were taken 14 days and 7 days before the start of treatment and were then measured weekly throughout the treatment period. […]
Strand notation (5' to 3'): a small letter for the sugar, then the base; units joined by * are phosphorothioate-linked, units joined directly phosphodiester-linked; [ ] holds rarer units or linkages, { } end groups; capitals alone tell only the bases. e = 2'-O-(2-methoxyethyl) (MOE); [5mC] = 5-methylcytosine; d = 2'-deoxy (DNA)
IL-8 level values for the substances below.
property: IL-8 level

1. ISIS 445531: 5-8-5 or 6-8-6 MOE microwalk gapmer (Table 44) (antisense eG*eG*e[5mC]*eA*eT*dT*dG*dG*dT*dG*d[5mC]*dA*d[5mC]*eA*eG*eT*eT*eT)    83 pg/mL
2. ISIS 449709: 3-8-3, 4-8-4, 2-10-2, 3-10-3 or 4-10-4 MOE microwalk gapmer (Table 46) (antisense eG*e[5mC]*eA*e[5mC]*dA*dG*dT*dT*dT*d[5mC]*dT*dG*dG*d[5mC]*eA*eG*eG*e[5mC])    34 pg/mL

----------
# cond: mouse, in vivo, sc, 50 mg/kg
e = 2'-O-(2-methoxyethyl) (MOE); d = 2'-deoxy (DNA)
WBC values for the substances below.
property: WBC

1. ISIS 445513, (antisense GCAGCGGACGGCATTGGTGC; 6-8-6 MOE gapmer, further chemistry not given here)    7
2. ISIS 445505: 5-8-5 or 6-8-6 MOE microwalk gapmer (Table 44) (antisense CGGCATTGGTGCACAGTTTC; sugars from the 5' end e6 d8 e6, backbone and methylation of C not given here)    5
3. ISIS 445498: 5-8-5 or 6-8-6 MOE microwalk gapmer (Table 44) (antisense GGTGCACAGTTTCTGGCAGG; sugars from the 5' end e6 d8 e6, backbone and methylation of C not given here)    5
4. ISIS 445530: 5-8-5 or 6-8-6 MOE microwalk gapmer (Table 44) (antisense GCATTGGTGCACAGTTTC; sugars from the 5' end e5 d8 e5, backbone and methylation of C not given here)    7

----------
# measurement protocol: Tolerability in Sprague-Dawley rats: liver function (Example 35)
# cond: plasma, 50 mg/kg s.c. twice per week for 6 weeks
Albumin values for the substances below.
property: Albumin

1. ISIS 416850: MOE gapmer, nucleobases 1275 to 1318 of SEQ ID NO: 1 (Table 8) (antisense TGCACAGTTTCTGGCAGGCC; MOE gapmer, wing and gap sizes not given here)    4
2. ISIS 417002: MOE gapmer, nucleobases 1275 to 1318 of SEQ ID NO: 1 (Table 8) (antisense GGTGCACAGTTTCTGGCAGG; MOE gapmer, wing and gap sizes not given here)    3

----------
# measurement protocol: Hematology assays in cynomolgus monkeys (Example 45)
# Type: in vivo
# cond: Day 71; escalating dose regimen
MCH values for the substances below.
property: MCH

1) ISIS 416864: MOE gapmer, nucleobases 1275 to 1318 of SEQ ID NO: 1 (Table 8) (antisense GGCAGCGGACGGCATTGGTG; MOE gapmer, wing and gap sizes not given here)    23 pg
2) ISIS 417002: MOE gapmer, nucleobases 1275 to 1318 of SEQ ID NO: 1 (Table 8) (antisense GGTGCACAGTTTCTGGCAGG; MOE gapmer, wing and gap sizes not given here)    23 pg
3) ISIS 416838: MOE gapmer, nucleobases 1018 to 1042 of SEQ ID NO: 1 (Table 6) (antisense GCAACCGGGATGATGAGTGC; MOE gapmer, wing and gap sizes not given here)    23 pg
4) ISIS 416858: MOE gapmer, nucleobases 1275 to 1318 of SEQ ID NO: 1 (Table 8) (antisense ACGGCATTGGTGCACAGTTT; MOE gapmer, wing and gap sizes not given here)    22 pg
5) ISIS 416850: MOE gapmer, nucleobases 1275 to 1318 of SEQ ID NO: 1 (Table 8) (antisense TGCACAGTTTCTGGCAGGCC; MOE gapmer, wing and gap sizes not given here)    23 pg

----------
# measurement protocol: Hematology assays in cynomolgus monkeys (Example 45)
# Format: in vivo
# cond: Day 85; escalating dose regimen
property: MCH (pg)

1. ISIS 416850: MOE gapmer, nucleobases 1275 to 1318 of SEQ ID NO: 1 (Table 8) (antisense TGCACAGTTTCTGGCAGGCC; MOE gapmer, wing and gap sizes not given here)    22
2. ISIS 416838: MOE gapmer, nucleobases 1018 to 1042 of SEQ ID NO: 1 (Table 6) (antisense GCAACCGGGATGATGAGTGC; MOE gapmer, wing and gap sizes not given here)    23
3. ISIS 416858: MOE gapmer, nucleobases 1275 to 1318 of SEQ ID NO: 1 (Table 8) (antisense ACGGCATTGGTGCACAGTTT; MOE gapmer, wing and gap sizes not given here)    22
4. ISIS 416864: MOE gapmer, nucleobases 1275 to 1318 of SEQ ID NO: 1 (Table 8) (antisense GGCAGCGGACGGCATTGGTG; MOE gapmer, wing and gap sizes not given here)    23
5. ISIS 417002: MOE gapmer, nucleobases 1275 to 1318 of SEQ ID NO: 1 (Table 8) (antisense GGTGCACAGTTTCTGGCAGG; MOE gapmer, wing and gap sizes not given here)    23

----------
# measurement protocol: Hematology assays in cynomolgus monkeys (Example 45)
# Format: in vivo
# cond: day 15
property: reticulocytes (%)

1. ISIS 416864: MOE gapmer, nucleobases 1275 to 1318 of SEQ ID NO: 1 (Table 8) (antisense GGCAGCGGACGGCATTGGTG; MOE gapmer, wing and gap sizes not given here)    0.8
2. ISIS 416858: MOE gapmer, nucleobases 1275 to 1318 of SEQ ID NO: 1 (Table 8) (antisense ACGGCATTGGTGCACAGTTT; MOE gapmer, wing and gap sizes not given here)    1.6
3. ISIS 416838: MOE gapmer, nucleobases 1018 to 1042 of SEQ ID NO: 1 (Table 6) (antisense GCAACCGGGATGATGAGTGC; MOE gapmer, wing and gap sizes not given here)    1.2
4. ISIS 417002: MOE gapmer, nucleobases 1275 to 1318 of SEQ ID NO: 1 (Table 8) (antisense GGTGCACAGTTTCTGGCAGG; MOE gapmer, wing and gap sizes not given here)    1.1
5. ISIS 416850: MOE gapmer, nucleobases 1275 to 1318 of SEQ ID NO: 1 (Table 8) (antisense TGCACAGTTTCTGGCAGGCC; MOE gapmer, wing and gap sizes not given here)    1.9

----------
# measurement protocol: Hematology assays in cynomolgus monkeys (Example 46)
# Type: in vivo
# cond: Day 45
# Description: Groups, each consisting of two male and two female monkeys, were injected subcutaneously with 25 mg/kg of ISIS 416850, ISIS 449709, ISIS 445522, ISIS 449710, ISIS 449707, ISIS 449711, ISIS 449708, 416858, and ISIS 445531. […] Body weights were taken 14 days and 7 days before the start of treatment and were then measured weekly throughout the treatment period. […]
Strand notation (5' to 3'): a small letter for the sugar, then the base; units joined by * are phosphorothioate-linked, units joined directly phosphodiester-linked; [ ] holds rarer units or linkages, { } end groups; capitals alone tell only the bases. e = 2'-O-(2-methoxyethyl) (MOE); [5mC] = 5-methylcytosine; d = 2'-deoxy (DNA)
property: hemoglobin content (g/dL)

1) ISIS 449707: 3-8-3, 4-8-4, 2-10-2, 3-10-3 or 4-10-4 MOE microwalk gapmer (Table 46) (antisense e[5mC]*eA*e[5mC]*eA*dG*dT*dT*dT*d[5mC]*dT*dG*dG*e[5mC]*eA*eG*eG)    12.9
2) ISIS 449708: 3-8-3, 4-8-4, 2-10-2, 3-10-3 or 4-10-4 MOE microwalk gapmer (Table 46) (antisense eA*e[5mC]*eA*dG*dT*dT*dT*d[5mC]*dT*dG*dG*e[5mC]*eA*eG)    13.3
3) ISIS 449710: 3-8-3, 4-8-4, 2-10-2, 3-10-3 or 4-10-4 MOE microwalk gapmer (Table 46) (antisense e[5mC]*eA*e[5mC]*dA*dG*dT*dT*dT*d[5mC]*dT*dG*dG*d[5mC]*eA*eG*eG)    13.0
4) ISIS 445531: 5-8-5 or 6-8-6 MOE microwalk gapmer (Table 44) (antisense eG*eG*e[5mC]*eA*eT*dT*dG*dG*dT*dG*d[5mC]*dA*d[5mC]*eA*eG*eT*eT*eT)    12.0
5) ISIS 445522: 5-8-5 or 6-8-6 MOE microwalk gapmer (Table 44) (antisense eG*e[5mC]*eA*e[5mC]*eA*dG*dT*dT*dT*d[5mC]*dT*dG*dG*e[5mC]*eA*eG*eG*e[5mC])    12.6
6) ISIS 449709: 3-8-3, 4-8-4, 2-10-2, 3-10-3 or 4-10-4 MOE microwalk gapmer (Table 46) (antisense eG*e[5mC]*eA*e[5mC]*dA*dG*dT*dT*dT*d[5mC]*dT*dG*dG*d[5mC]*eA*eG*eG*e[5mC])    12.6
7) ISIS 416850: MOE gapmer, nucleobases 1275 to 1318 of SEQ ID NO: 1 (Table 8) (antisense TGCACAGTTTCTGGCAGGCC; MOE gapmer, wing and gap sizes not given here)    13.1
8) ISIS 416858: MOE gapmer, nucleobases 1275 to 1318 of SEQ ID NO: 1 (Table 8) (antisense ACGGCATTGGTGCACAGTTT; MOE gapmer, wing and gap sizes not given here)    12.3
9) ISIS 449711: 3-8-3, 4-8-4, 2-10-2, 3-10-3 or 4-10-4 MOE microwalk gapmer (Table 46) (antisense eA*e[5mC]*dA*dG*dT*dT*dT*d[5mC]*dT*dG*dG*d[5mC]*eA*eG)    11.5
